Protocol Text: Solubility in aqueous media, 37 °C
Format: physicochemical
Test Context: pH 1.0 (0.1N HCl), 37 °C, 2 h
Quantity Kind: solubility at 2 h

Briefly, solubility at 2 h measured for CN1C[C@H]2C[C@@]2(C#Cc2cc3ncnc(Nc4cccc(Cl)c4F)c3cc2NC(=O)/C=C/CN2CCOCC2)C1 [Form M] : > 2000 µg/mL

====

Protocol Text: Solubility in aqueous media, 37 °C
Assay type: physicochemical
Test Context: SGF, pH 2.0, 37 °C, 24 h
Quantity Kind: solubility at 24 h

Briefly, solubility at 24 h measured for CN1C[C@H]2C[C@@]2(C#Cc2cc3ncnc(Nc4cccc(Cl)c4F)c3cc2NC(=O)/C=C/CN2CCOCC2)C1 [Form M] : > 2000 µg/mL

====

Protocol Text: Solubility in aqueous media, 37 °C
Type: physicochemical
Test Context: Water, 37 °C, 2 h
Quantity Kind: solubility at 2 h (µg/mL)
Dear colleague, please return just the value in µg/mL, with no unit written.

Briefly, solubility at 2 h measured for CN1C[C@H]2C[C@@]2(C#Cc2cc3ncnc(Nc4cccc(Cl)c4F)c3cc2NC(=O)/C=C/CN2CCOCC2)C1 [Form M] : 1490

====

Protocol Text: Solubility in aqueous media, 37 °C
Type: physicochemical
Test Context: SGF, pH 2.0, 37 °C, 2 h
Quantity Kind: solubility at 2 h

Briefly, solubility at 2 h measured for CN1C[C@H]2C[C@@]2(C#Cc2cc3ncnc(Nc4cccc(Cl)c4F)c3cc2NC(=O)/C=C/CN2CCOCC2)C1 [Form M] : > 2000 µg/mL

====

Protocol Text: Solubility in aqueous media, 37 °C
Assay type: physicochemical
Test Context: pH 1.0 (0.1N HCl), 37 °C, 24 h
Quantity Kind: solubility at 24 h

Briefly, solubility at 24 h measured for CN1C[C@H]2C[C@@]2(C#Cc2cc3ncnc(Nc4cccc(Cl)c4F)c3cc2NC(=O)/C=C/CN2CCOCC2)C1 [Form M] : > 2000 µg/mL

====

Protocol Text: Solubility in aqueous media, 37 °C
Assay type: physicochemical
Test Context: aqueous buffer; pH 6.8 (50 mM) phosphate buffer, 37 °C, 2 h
Quantity Kind: solubility at 2 h (µg/mL)
Dear colleague, please return just the value in µg/mL, with no unit written.

Briefly, solubility at 2 h measured for CN1C[C@H]2C[C@@]2(C#Cc2cc3ncnc(Nc4cccc(Cl)c4F)c3cc2NC(=O)/C=C/CN2CCOCC2)C1 [Form M] : 183
